# assay_protocol: In vitro metabolism study
# Type: in vitro ADME, rat
# assay_conditions: rat liver S9 (R), 1 μM substrate
CLintapp (apparent in vitro intrinsic clearance) overview
reported_property: CLintapp (apparent in vitro intrinsic clearance)

compound	result
CCCCCCCCOC(=O)c1cc(O)c(O)c(O)c1 [octyl gallate]	3662 μL/min/mg of S9 protein
CCCCCCCCCCCCOC(=O)c1cc(O)c(O)c(O)c1 [dodecyl gallate]	232 μL/min/mg of S9 protein
COC(=O)c1ccc(O)cc1	629 μL/min/mg of S9 protein
CCCOC(=O)c1cc(O)c(O)c(O)c1 [propyl gallate]	818 μL/min/mg of S9 protein

====

CLintapp (apparent in vitro intrinsic clearance) overview
# assay_protocol: In vitro metabolism study
# Format: in vitro ADME, human
# assay_conditions: human liver S9 (H), 1 μM substrate
reported_property: CLintapp (apparent in vitro intrinsic clearance)

compound	result
CCCOC(=O)c1cc(O)c(O)c(O)c1 [propyl gallate]	428 μL/min/mg of S9 protein
CCCCCCCCOC(=O)c1cc(O)c(O)c(O)c1 [octyl gallate]	3119 μL/min/mg of S9 protein
COC(=O)c1ccc(O)cc1	102 μL/min/mg of S9 protein
CCCCCCCCCCCCOC(=O)c1cc(O)c(O)c(O)c1 [dodecyl gallate]	88 μL/min/mg of S9 protein

====

# assay_protocol: In vitro metabolism study
# Assay type: in vitro ADME, rat
# assay_conditions: rat (R); CLintapp corrected for the fraction unbound in the incubation
reported_property: CLint,u

molecule	result
CCCCCCCCCCCCOC(=O)c1cc(O)c(O)c(O)c1 [dodecyl gallate]	11 600 μL/min/mg of S9 protein
COC(=O)c1ccc(O)cc1	642 μL/min/mg of S9 protein
CCCCCCCCOC(=O)c1cc(O)c(O)c(O)c1 [octyl gallate]	4695 μL/min/mg of S9 protein
CCCOC(=O)c1cc(O)c(O)c(O)c1 [propyl gallate]	835 μL/min/mg of S9 protein

====

# assay_protocol: In vitro metabolism study
# Type: in vitro ADME, human
# assay_conditions: human (H); CLintapp corrected for the fraction unbound in the incubation
reported_property: CLint,u

compound	result
CCCCCCCCCCCCOC(=O)c1cc(O)c(O)c(O)c1 [dodecyl gallate]	8800 μL/min/mg of S9 protein
COC(=O)c1ccc(O)cc1 [methylparaben]	121 μL/min/mg of S9 protein
CCCCCCCCOC(=O)c1cc(O)c(O)c(O)c1 [octyl gallate]	3999 μL/min/mg of S9 protein
CCCOC(=O)c1cc(O)c(O)c(O)c1 [propyl gallate]	437 μL/min/mg of S9 protein

These data points were gathered from paper PMC7887804.
